Data origin: ChEMBL document CHEMBL1201862

Test system: MOLT-4
protocol: NCI tumour cell line growth inhibition, 48 h
The source made the active and inactive calls. No stated cut-off is given here; in the data, active = GI50 up to about 1.1 µM and inactive = higher.
Outcomes you can answer with include only these: active, inactive

Q: In this assay, the call recorded for CC(C)(C)OC(=O)NC1CCCC1=O (configuration not stated) was what?
Result: inactive

Q: Then NC1CCCCC1.O=P(O)(O)C(O)/C=C/c1ccccc1 (configuration not stated) ?
Result: inactive

Q: // query: `COc1ccc([Se][Se]c2ccc(OC)cc2OC)c(OC)c1`
Result: inactive

Q: Try this molecule next: CCC1(O)C(=O)OCc2c1cc1n(c2=O)Cc2cc3cc4c(cc3nc2-1)OCO4 (configuration not stated)
Result: active

Q: What about this molecule? `Cc1ccc(/C=N/C23CC4CC(CC(C4)C2)C3)cc1`
Result: inactive

Q: Now try C=C1C(=O)OC2C3OC(C)(CCC(O)C3COC(C)=O)CC(OC(=O)/C(=C/C)COC(C)=O)C12 (configuration not stated) .
Result: active

Q: Let us now turn to `CN(CCC(=O)O)S(=O)(=O)c1ccccc1`
Result: inactive

Q: Also Nc1ncc2c(n1)-c1ccccc1OC2N1CCCC1 (configuration not stated) ?
Result: inactive

Q: Now consider `Cc1cc(C)nc(NS(=O)(=O)c2ccc(Nc3nnc(/C=C/c4c(O)ccc5ccccc45)c(=O)n3N)cc2)n1` .
Result: inactive

Q: Entry to check: C=C(C)CC1(O)C(=O)C(OCC)=C1OCC (configuration not stated)
Result: inactive

Q: Let us now turn to `COC(=O)[C@@]1(C)/C(=N/NS(=O)(=O)c2ccc(C)cc2)CCC[C@@H]1C`
Result: inactive

Q: Next: `O=C(O)c1cc2ccccc2c(/N=N\c2cc(C(F)(F)F)ccc2Cl)c1O`
Result: inactive

Q: Please do the same for CCCCCCCCCC(O)CC(=O)c1c(O)cccc1O (configuration not stated) as well.
Result: inactive

Q: And the next one, `COc1ccc(OC/C(N)=N/NC(=O)c2ccncc2)cc1` ?
Result: inactive

Q: Also, `COc1ccccc1/C=C(\C#N)C(=O)c1ccccc1` please.
Result: inactive

Q: Now consider `O=c1c2c(nc3n1CCC3)sc1c(O)c(Br)ccc12` .
Result: inactive

Q: // query: CCCCCCCCCCCCCCCCCCNc1ccn(C2OC(COP(=O)(O)OCC3OC(n4cc(F)c(=O)[nH]c4=O)CC3O)C(O)C2O)c(=O)n1 (configuration not stated)
Result: inactive

Q: Then what about the molecule `Nc1ccnc2c1ncn2[C@H]1C[C@H](O)[C@@H](CO)O1` ?
Result: inactive

Q: Entry `NC(=S)N/N=C\CC(O)(C(F)(F)F)C(F)(F)F` please
Result: inactive

Q: Param item: OC1CC(O)c2c(Cl)sc(Cl)c21 (configuration not stated)
Result: inactive

Q: Now consider CCC(C)C1NC(=O)C(NC(=O)C(CC(C)C)N(C)C(=O)[C@@H]2C=CCN2C(=O)[C@H](C)O)C(C)OC(=O)[C@H](Cc2ccc(OC)cc2)N(C)C(=O)[C@@H]2CCCN2C(=O)[C@H](CC(C)C)NC(=O)C(C)C(=O)[C@H](C(C)C)OC(=O)CC1O (some centres not stated) and answer again.
Result: active

Q: Same question, O=C(O)CCC1(Br)CCCCC(Br)C1=O (configuration not stated) this time
Result: inactive

Q: Same read-out for `c1ccc(NC2(c3nnnn3C3CCCCC3)CCNCC2)cc1` ?
Result: inactive

Q: Request: `Cc1c2cc[n+](C)cc2c(C)c2c1[nH]c1ccc(Oc3ccccc3)cc12`
Result: inactive

Q: Check COc1ccc2c(c1OCC(=O)O)C(=O)C(CCC(=O)O)CC2 (configuration not stated) too.
Result: inactive

Q: Request: `CN(C)/N=N/c1ccc([N+](=O)[O-])cc1C(N)=O`
Result: inactive

Q: Request: `CCOC(=O)c1cc(=O)oc2c1N(C)c1ncccc1N2`
Result: inactive

Q: Now give it for `N#C/C(=C\c1c(Cl)cccc1Cl)c1ccccc1` too.
Result: inactive

Q: Now try NCC1(N2CCOCC2)C2CCCC21CO (configuration not stated) .
Result: inactive

Q: Another molecule to look at: CC(=O)Nc1ccc2c3c(cc(O)c2c1)N(C(=O)CCCC(=O)Nc1ccc2c4c(cc(O)c2c1)N(C(=O)OC(C)(C)C)CC4CCl)CC3CCl (configuration not stated)
Result: active

Q: Try this molecule too: CC(=O)N1N=C(c2ccc3ccccc3c2O)CC1c1ccc(Cl)cc1Cl (configuration not stated)
Result: inactive

Q: Entry CCOC1OCCCC1Br (configuration not stated) please
Result: inactive

Q: Same read-out for CCCCCCCCCCCCCCCCCCNc1ccn(C2OC(COP(=O)(O)OCC3OC(n4cc(C)c(=O)[nH]c4=O)CC3N=[N+]=[N-])C(O)C2O)c(=O)n1 (configuration not stated) ?
Result: inactive

Q: Now consider `COc1cc(OC)c(OC)cc1/C=C1\C=Cc2ccccc21` .
Result: inactive

Q: Please give the result for COC(=O)C(C(=O)C(=O)Nc1ccc(C)cc1C)c1csc(-n2nc(-c3ccccc3)cc2-c2ccccc2)n1 (configuration not stated) too.
Result: inactive

Q: Moving on to CCOc1ccccc1/N=N/C1C(=O)N(C(=O)CC(=O)Nc2ccccc2C)N=C1C (configuration not stated)
Result: inactive

Q: Thanks! And COc1cccc(C2C(C(=O)O)=C(CO)Oc3cc4c(cc32)OCO4)c1 (configuration not stated) ?
Result: inactive

Q: Next molecule: `COc1cc2c(cc1OCc1ccccc1)NC(=S)[C@@H]1CCCN1C2=S`
Result: inactive

Q: Consider next the molecule COc1ccc(-c2c(C(=O)Nc3ccccc3)c(-c3ccccc3)n(C3OC(CO)C(O)C(O)C3O)c(=S)c2C#N)cc1 (configuration not stated) in the same way.
Result: inactive

Q: Another molecule to check: `Cc1ccc(S(=O)(=O)n2cncc2CO)cc1`
Result: inactive

Q: Same question, `CCCSc1cc(Cl)c(C)cc1S(=O)(=O)n1ccnc1O` this time
Result: inactive

Q: Query `Brc1ccc2c(c1)-c1nc3nc4c(cc3cc1CC2)CCc1ccc(Br)cc1-4` next
Result: inactive
